This listing pairs compounds with measured TGI.
- Test system: T-47D breast
- ASSAY REMARKS: NCI tumour cell line growth inhibition, 48 h

# example entries with known answers
CCCCC/C=C\C=C1\C(=O)C=C[C@@H]1C/C=C\CCCC(=O)O :: 24.5 µM
c1cc(N2CCCC2)c2nc(-c3[nH]ncc3Nc3ncnc4[nH]ccc34)[nH]c2c1 :: 5.97 µM

Notebook: COC1(OC)C[C@H](C)[C@@]23O[C@]24C2=CC(=O)C=CC2=N[C@H]3C#C/C=C\C#C[C@]14O , TGI read as 2.56 µM

---

# Lookup of reported TGI keyed by entry
- Tested on: SW-620 colon
- ASSAY REMARKS: NCI tumour cell line growth inhibition, 48 h

COc1nc(-c2cn(S(=O)(=O)c3ccc(C)cc3)c3ccc(Br)cc23)cc(C(F)(F)F)c1C#N :: > 100 µM
C[C@]12CCC3c4ccc(O)cc4CC[C@H]3C1CC(=O)N(CCN1CCCC1)C2=O (some centres not stated) :: > 10 µM
COc1cc(OC)cc(Oc2nc3cc(N)cc(N)c3nc2-c2ccccc2)c1 :: 10.2 µM
CC[C@H]1C[C@@H](O)[C@@H]2[C@H](O)[C@H](O)CN2C1 :: > 100 µM
CC1CC2=C(C(=O)O1)C(c1ccccc1)Nc1ccccc1N2 (configuration not stated) :: > 100 µM

# compound Cc1cc(S(=O)(=O)Nc2nc(N)nc(N(C)C)n2)c(S)cc1Cl ; its TGI = > 10 µM

Field TGI (entry Cc1cccc(NC(=O)c2sc3nc4c(cc3c2N)CCCC4)c1 ) reads > 100 µM

Quick note, TGI for Nc1nc2c(c3cnccc13)C(c1cccc(Br)c1)Cc1cnccc1-2 (configuration not stated) landed at 17.4 µM

In plain terms, CCOC(=O)C(=O)/C=C(\C)Nc1c(NC2OCC(OC(C)=O)C(OC(C)=O)C2OC(C)=O)nc(SC)[nH]c1=O (configuration not stated) has a documented TGI of > 100 µM

Data point: NC(CSC(=O)c1ccccc1)C(=O)O (configuration not stated) ; TGI = > 100 µM

CCN1CCN(c2cc(C)nc(N(CCCNc3ccnc4cc(Cl)ccc34)Cc3cccs3)n2)CC1 has a reported TGI of 3.86 µM

Entry N#CC(C#N)=C/C=C(\Sc1ccc(F)c(Cl)c1)c1ccc(Cl)cc1 , TGI reported as 5.74 µM

---

Entries annotated with measured GI50
- System: K-562 leukemia
- ASSAY REMARKS: NCI tumour cell line growth inhibition, 48 h

Guide cases for GI50, answers given:
COc1cc(Nc2cc(C)nc(N3CCN(c4ccnc5cc(Cl)ccc45)CC3)n2)cc(OC)c1 :: 108 nM
Nc1nc2c(c3cnccc13)C(c1cccc(Br)c1)Cc1cnccc1-2 (centres undefined) :: 346 nM
COc1c(OCCCN2CCOCC2)ccc2c3n(c(=NC(=O)c4cnc(N)nc4)nc12)CCN3 :: 1.68 µM [middle of 4 runs]
CC1=C(SCCC(=O)OCC(=O)NCCC[Te]c2ccccc2)C(=O)c2ccccc2C1=O :: 3300 nM
COc1ccc2c(c1)N(CCO)C1=C(C(=O)OC1)C2c1cc(OC)c(OC)c(OC)c1 (centres undefined) :: 19.6 nM
O=c1c(O)c(O)c1=O.[NH2-].[NH2-].[NH2-].[NH2-].[NH2-].[Ru+5] :: > 100000 nM

Briefly, GI50 measured for CC[C@]12C=CCN3CC[C@]4(C(=C(C(=O)OC)C1)Nc1cc(OC)c(OC(C)=O)cc14)[C@@H]32 : 274 nM

The molecule identified as COc1cc(-n2cncc2-c2ccc3ccccc3c2)cc(OC)c1OC registered its GI50 at < 10 nM

The recorded GI50 for COc1cc2c(cc1O)N=C[C@@H]1C[C@@H](F)CN1C2=O is 367 nM

These measurements were taken from PubChem BioAssay (NCI).
